solubility kinetic by entry:
Experiment Description: Kinetic solubility in PBS buffer at pH 7
Type: physicochemical
Cond: read-out: Kinetic_solubility

C1=C/COCc2cc(ccc2OCCN2CCCC2)Nc2nccc(n2)-c2coc(c2)COC/1 (mixture of isomers) :: > 250 µg/mL

Problem: For the compound C1=C2COC/C=C/COCc3cc(ccc3OCCN3CCCC3)Nc3nccc(n3)C(=C1)S2 (mixture of isomers) , give its reported solubility kinetic.
Solution: 154 µg/mL

Problem: For the compound C1=C2COC/C=C/COCc3cc(ccc3OCCN3CCCC3)Nc3nccc(n3)C(=C1)O2 (mixture of isomers) [CT-1578] , give its reported solubility kinetic.
Solution: > 250 µg/mL

Problem: For the compound C1=C/COCc2cc(ccc2OCCN2CCCC2)Nc2nccc(n2)-c2csc(c2)COC/1 (mixture of isomers) , give its reported solubility kinetic.
Solution: 218 µg/mL

====

Measurement Target: Receptor-type tyrosine-protein kinase FLT3 (Homo sapiens)
Sequence (P36888 whole entry): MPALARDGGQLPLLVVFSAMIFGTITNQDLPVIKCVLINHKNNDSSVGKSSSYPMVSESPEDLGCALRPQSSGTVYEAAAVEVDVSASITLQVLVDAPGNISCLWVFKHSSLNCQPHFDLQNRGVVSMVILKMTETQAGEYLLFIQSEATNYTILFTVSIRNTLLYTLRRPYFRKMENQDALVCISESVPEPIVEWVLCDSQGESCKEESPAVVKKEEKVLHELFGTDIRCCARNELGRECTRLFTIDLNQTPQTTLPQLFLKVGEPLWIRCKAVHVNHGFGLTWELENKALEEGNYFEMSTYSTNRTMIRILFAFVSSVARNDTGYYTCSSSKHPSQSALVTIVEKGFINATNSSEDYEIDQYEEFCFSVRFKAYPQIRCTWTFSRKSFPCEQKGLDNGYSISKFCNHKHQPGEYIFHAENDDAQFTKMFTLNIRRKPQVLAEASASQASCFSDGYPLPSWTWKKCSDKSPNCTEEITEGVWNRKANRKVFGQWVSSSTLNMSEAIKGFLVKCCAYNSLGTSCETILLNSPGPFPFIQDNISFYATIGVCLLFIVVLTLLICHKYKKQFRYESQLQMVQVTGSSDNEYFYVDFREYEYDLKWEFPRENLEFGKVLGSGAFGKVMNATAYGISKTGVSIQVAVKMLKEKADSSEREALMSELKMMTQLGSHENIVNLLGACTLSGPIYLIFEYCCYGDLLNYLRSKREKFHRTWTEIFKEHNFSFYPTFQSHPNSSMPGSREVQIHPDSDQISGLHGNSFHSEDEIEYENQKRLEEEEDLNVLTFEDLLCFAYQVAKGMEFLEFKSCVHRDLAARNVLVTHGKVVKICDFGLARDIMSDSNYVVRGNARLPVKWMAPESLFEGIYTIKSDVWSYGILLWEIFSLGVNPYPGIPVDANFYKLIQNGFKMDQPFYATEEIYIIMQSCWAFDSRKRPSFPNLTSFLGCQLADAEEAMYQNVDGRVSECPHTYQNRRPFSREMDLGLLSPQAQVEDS
Experiment Description: Inhibition of recombinant FLT3 using poly(Glu,Tyr) as substrate after 2 hrs by luminometric assay
IC50 by entry:
Kindly answer with a numeric value in nM, unit omitted.

Answered examples (3):
Cc1cnc2nc1-c1ccc3ccn(c3c1)C/C=C/COCc1cc(ccc1OCCN1CCCC1)N2 (mixture of isomers) :: 17
C1=C/COCc2cc(ccc2OCCN2CCCC2)Nc2nccc(n2)-c2csc(c2)COC/1 (mixture of isomers) :: 45
COCCOc1ccc2cc1CN(C)C/C=C/COCC1=CC=C(O1)c1ccnc(n1)N2 (mixture of isomers) :: 1200

// moving on: another record for IC50
Problem: Determine reported IC50 for C1=C/COCc2cc(ccc2OCCN2CCCC2)Nc2nccc(n2)-c2cncc(c2)COC/1 (mixture of isomers) ; test system: Receptor-type tyrosine-protein kinase FLT3 (Homo sapiens).
Solution: 63

====

Experiment Description: Terminal half life in rhesus monkey at 20 mg/kg, po
Assay type: ADME, organism-based, Macaca mulatta
Parameters: dose 20 mg/kg, route oral
Cond: in vivo, read-out: beta t1/2 (converted)
Measured Quantity: half-life
Don't forget the unit after the number, please.

Problem: For the molecule C1=C2COC/C=C/COCc3cc(ccc3OCCN3CCCC3)Nc3nccc(n3)C(=C1)O2 (mixture of isomers) , give its reported half-life.
Solution: 1.1 h

====

Experiment Description: Terminal half life in Wistar rat at 50 mg/kg, po
Type: ADME, organism-based
Set-up: dose 50 mg/kg, route oral
Cond: in vivo, read-out: beta t1/2 (converted)
Measured Quantity: half-life (h)
Kindly answer with a numeric value in h, unit omitted.

Problem: For the compound C1=C2COC/C=C/COCc3cc(ccc3OCCN3CCCC3)Nc3nccc(n3)C(=C1)O2 (mixture of isomers) [CT-1578] , give its reported half-life.
Solution: 3.6

====

Measurement Target: Macrophage colony-stimulating factor 1 receptor (Homo sapiens, UniProt P07333)
Sequence (P07333 whole entry): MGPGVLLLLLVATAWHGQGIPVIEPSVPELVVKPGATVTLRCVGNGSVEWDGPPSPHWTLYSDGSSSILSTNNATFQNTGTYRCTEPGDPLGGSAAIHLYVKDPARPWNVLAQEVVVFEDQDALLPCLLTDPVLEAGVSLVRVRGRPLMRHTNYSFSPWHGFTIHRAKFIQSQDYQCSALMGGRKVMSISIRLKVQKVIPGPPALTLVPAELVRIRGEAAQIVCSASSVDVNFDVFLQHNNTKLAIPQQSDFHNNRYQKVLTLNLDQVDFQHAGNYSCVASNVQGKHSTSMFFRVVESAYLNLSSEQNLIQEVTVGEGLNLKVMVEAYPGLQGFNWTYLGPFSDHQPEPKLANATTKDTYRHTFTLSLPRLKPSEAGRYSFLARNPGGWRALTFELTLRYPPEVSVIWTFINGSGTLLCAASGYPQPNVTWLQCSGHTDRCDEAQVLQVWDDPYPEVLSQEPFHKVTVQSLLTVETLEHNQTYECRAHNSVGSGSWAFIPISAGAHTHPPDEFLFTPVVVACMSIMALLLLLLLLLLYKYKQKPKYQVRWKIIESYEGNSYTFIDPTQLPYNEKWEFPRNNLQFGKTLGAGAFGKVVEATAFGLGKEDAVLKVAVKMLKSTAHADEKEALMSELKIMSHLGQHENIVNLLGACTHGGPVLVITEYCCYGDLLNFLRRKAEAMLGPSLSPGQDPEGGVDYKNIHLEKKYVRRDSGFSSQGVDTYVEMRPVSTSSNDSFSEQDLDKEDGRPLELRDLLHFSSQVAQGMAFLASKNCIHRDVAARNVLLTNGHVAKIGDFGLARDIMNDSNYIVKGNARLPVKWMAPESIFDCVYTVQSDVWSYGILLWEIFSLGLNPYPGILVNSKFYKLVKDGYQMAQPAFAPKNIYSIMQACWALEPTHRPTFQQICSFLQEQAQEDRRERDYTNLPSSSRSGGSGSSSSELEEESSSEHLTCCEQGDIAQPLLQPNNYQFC
Measured Quantity: IC50 (nM)
Kindly answer with a numeric value in nM, unit omitted.

Problem: Determine reported IC50 for C1=C2COC/C=C/COCc3cc(ccc3OCCN3CCCC3)Nc3nccc(n3)C(=C1)O2 (mixture of isomers) ; test system: Macrophage colony-stimulating factor 1 receptor (Homo sapiens, UniProt P07333).
Solution: 69

====

Experiment Description: AUC (0 to infinity) in Wistar rat at 50 mg/kg, po
Format: ADME, organism-based
Set-up: dose 50 mg/kg, route oral, time infinity
Cond: plasma
Measured Quantity: AUC(0-inf) (ng·h/mL)
Kindly answer with a numeric value in ng·h/mL, unit omitted.

Problem: For the compound C1=C2COC/C=C/COCc3cc(ccc3OCCN3CCCC3)Nc3nccc(n3)C(=C1)O2 (mixture of isomers) , give its reported AUC(0-inf).
Solution: 1500

====

pIC50 by entry:
Measurement Target: Tyrosine-protein kinase JAK1 (Homo sapiens, UniProt P23458)
Sequence (P23458 whole entry): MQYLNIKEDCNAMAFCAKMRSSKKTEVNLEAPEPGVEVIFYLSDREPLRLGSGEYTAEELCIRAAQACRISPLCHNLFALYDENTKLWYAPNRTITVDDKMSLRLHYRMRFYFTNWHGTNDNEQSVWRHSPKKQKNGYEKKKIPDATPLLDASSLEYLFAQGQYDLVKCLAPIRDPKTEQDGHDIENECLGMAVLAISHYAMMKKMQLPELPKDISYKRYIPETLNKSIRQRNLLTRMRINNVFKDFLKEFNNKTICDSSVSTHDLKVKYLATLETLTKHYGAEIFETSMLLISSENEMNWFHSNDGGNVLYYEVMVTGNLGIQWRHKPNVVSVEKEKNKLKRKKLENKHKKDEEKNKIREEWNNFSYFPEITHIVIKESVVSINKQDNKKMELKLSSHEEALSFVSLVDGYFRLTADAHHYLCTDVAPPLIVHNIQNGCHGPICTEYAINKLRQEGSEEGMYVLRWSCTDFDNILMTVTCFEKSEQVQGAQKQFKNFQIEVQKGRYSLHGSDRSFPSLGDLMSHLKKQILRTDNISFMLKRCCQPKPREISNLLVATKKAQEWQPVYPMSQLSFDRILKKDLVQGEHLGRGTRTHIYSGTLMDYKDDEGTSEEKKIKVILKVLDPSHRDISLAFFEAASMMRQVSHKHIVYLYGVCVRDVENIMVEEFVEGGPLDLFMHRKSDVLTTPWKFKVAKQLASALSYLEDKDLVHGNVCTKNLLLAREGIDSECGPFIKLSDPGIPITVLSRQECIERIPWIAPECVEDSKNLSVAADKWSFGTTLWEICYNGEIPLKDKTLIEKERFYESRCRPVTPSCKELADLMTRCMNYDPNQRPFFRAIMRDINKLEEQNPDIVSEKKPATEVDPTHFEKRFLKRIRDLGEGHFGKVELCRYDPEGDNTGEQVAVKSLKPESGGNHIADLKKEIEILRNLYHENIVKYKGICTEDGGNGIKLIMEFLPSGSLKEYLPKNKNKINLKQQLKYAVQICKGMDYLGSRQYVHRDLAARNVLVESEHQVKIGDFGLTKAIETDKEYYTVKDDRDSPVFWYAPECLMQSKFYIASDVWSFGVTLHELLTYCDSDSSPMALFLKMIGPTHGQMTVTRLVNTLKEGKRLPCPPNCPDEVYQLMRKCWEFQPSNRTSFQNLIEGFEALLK
Experiment Description: Inhibition of recombinant JAK1 using poly(Glu,Ala,Tyr) as substrate after 2 hrs by luminometric assay
Units for pIC50: none; it is -log10 of a concentration expressed in mol/L.

Cc1cnc2nc1-c1ccc3ccn(c3c1)C/C=C/COCc1cc(ccc1OCCN1CCCC1)N2 (mixture of isomers) :: 5.29

Problem: Determine reported pIC50 for C1=C/COCc2cc(ccc2OCCN2CCCC2)Nc2nccc(n2)-c2coc(c2)COC/1 (mixture of isomers) ; test system: Tyrosine-protein kinase JAK1 (Homo sapiens, UniProt P23458).
Solution: 5.52

====

Measurement Target: Tyrosine-protein kinase JAK1 (Homo sapiens)
Experiment Description: Inhibition of recombinant JAK1 using poly(Glu,Ala,Tyr) as substrate after 2 hrs by luminometric assay
Measured Quantity: IC50

C1=C/COCc2cc(ccc2OCCN2CCCC2)Nc2nccc(n2)-c2ccnc(c2)OCC/1 (mixture of isomers) :: 0.97 µM
C1=C/COCc2cncc(c2)-c2ccnc(n2)Nc2cccc(c2)COC/1 :: > 10 µM
C1=C2COC/C=C/COCc3cccc(c3)Nc3nccc(n3)C(=C1)O2 (mixture of isomers) :: 8 µM

Problem: For the compound C1=C2COC/C=C/COCc3cc(ccc3OCCN3CCCC3)Nc3nccc(n3)C(=C1)S2 (mixture of isomers) , give its reported IC50.
Solution: 0.42 µM

Problem: For the compound C1=C/COCc2cc(ccc2OCCN2CCCC2)Nc2nccc(n2)-c2cc(co2)COC/1 (mixture of isomers) , give its reported IC50.
Solution: 1.9 µM

Problem: For the compound CN1C/C=C/COCC2=CC=C(O2)c2ccnc(n2)Nc2cccc(c2)C1 (mixture of isomers) , give its reported IC50.
Solution: 1.8 µM

Problem: For the compound COCCOc1ccc2cc1CN(C)C/C=C/COCC1=CC=C(S1)c1ccnc(n1)N2 (mixture of isomers) , give its reported IC50.
Solution: 0.39 µM

Problem: For the compound C1=C/COCc2cc(ccc2OCCN2CCCC2)Nc2nccc(n2)-c2csc(c2)COC/1 (mixture of isomers) , give its reported IC50.
Solution: 1.5 µM

Problem: For the compound COCCOc1ccc2cc1CN(C)C/C=C/COCC1=CC=C(O1)c1ccnc(n1)N2 (mixture of isomers) , give its reported IC50.
Solution: 3.2 µM

====

Measurement Target: Cytochrome P450 2D6 (Homo sapiens, UniProt P10635)
Sequence (P10635 whole entry): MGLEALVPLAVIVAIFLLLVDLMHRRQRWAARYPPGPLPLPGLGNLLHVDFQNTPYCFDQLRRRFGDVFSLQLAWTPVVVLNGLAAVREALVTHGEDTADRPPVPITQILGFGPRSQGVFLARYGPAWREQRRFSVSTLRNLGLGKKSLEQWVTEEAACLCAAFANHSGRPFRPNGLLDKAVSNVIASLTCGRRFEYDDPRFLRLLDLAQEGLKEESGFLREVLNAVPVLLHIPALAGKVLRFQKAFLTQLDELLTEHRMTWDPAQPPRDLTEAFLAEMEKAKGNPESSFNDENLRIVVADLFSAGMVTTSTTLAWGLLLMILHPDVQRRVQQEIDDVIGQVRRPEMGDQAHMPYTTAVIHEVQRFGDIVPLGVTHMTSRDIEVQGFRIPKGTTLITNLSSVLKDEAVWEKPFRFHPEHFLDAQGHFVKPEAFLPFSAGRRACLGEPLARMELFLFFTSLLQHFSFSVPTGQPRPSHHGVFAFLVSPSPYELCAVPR
Experiment Description: Inhibition of CYP2D6 in human liver microsomes using dextromethorphan as substrate by fluorescence detection assay
Format: ADME, Microsome
Measured Quantity: IC50

Problem: For the compound C1=C2COC/C=C/COCc3cc(ccc3OCCN3CCCC3)Nc3nccc(n3)C(=C1)O2 (mixture of isomers) , give its reported IC50.
Solution: > 10 µM

====

Experiment Description: Plasma protein binding in rat at 1000 ng/mL by equilibrium dialysis
Format: ADME, cell-free
Cond: read-out: PPB (converted)
Measured Quantity: fraction unbound at 1000 ng/mL
Write the value as a bare number.

Problem: For the compound C1=C2COC/C=C/COCc3cc(ccc3OCCN3CCCC3)Nc3nccc(n3)C(=C1)O2 (mixture of isomers) , give its reported fraction unbound at 1000 ng/mL.
Solution: 0.127

====

Measurement Target: UniProt:P24941
Experiment Description: Inhibition of recombinant CDK2 using RbING as substrate after 2 hrs by luminometric assay
Measured Quantity: pIC50
Units for pIC50: none; it is -log10 of a concentration expressed in mol/L.

Answered examples (3):
C1=C/COCc2cc(ccc2OCCN2CCCC2)Nc2nccc(n2)-c2cncc(c2)COC/1 (mixture of isomers) :: 5.49
COCCOc1ccc2cc1CN(C)C/C=C/COCC1=CC=C(S1)c1ccnc(n1)N2 (mixture of isomers) :: 6.48
C1=C2COC/C=C/COCc3cc(ccc3OCCN3CCCC3)Nc3nccc(n3)C(=C1)S2 (mixture of isomers) :: 5.54

Problem: For the molecule COCCOc1ccc2cc1CN(C)C/C=C/COCC1=CC=C(O1)c1ccnc(n1)N2 (mixture of isomers) , give its reported pIC50.
Solution: 5.07

Problem: For the molecule C1=C/COCc2cc(ccc2OCCN2CCCC2)Nc2nccc(n2)-c2csc(c2)COC/1 (mixture of isomers) , give its reported pIC50.
Solution: 5.17

Problem: For the molecule C1=C/Cn2ccc3ccc(cc32)-c2ccnc(n2)Nc2cccc(c2)COC/1 (mixture of isomers) , give its reported pIC50.
Solution: 7.08

Problem: For the molecule C1=C2COC/C=C/COCc3cccc(c3)Nc3nccc(n3)C(=C1)O2 (mixture of isomers) , give its reported pIC50.
Solution: 6.17

====

Experiment Description: Oral bioavailability in rhesus monkey at 20 mg/kg
Assay type: ADME, organism-based, Macaca mulatta
Cond: in vivo
Measured Quantity: bioavailability
Don't forget the unit after the number, please.

Problem: For the compound C1=C2COC/C=C/COCc3cc(ccc3OCCN3CCCC3)Nc3nccc(n3)C(=C1)O2 (mixture of isomers) [CT-1578] , give its reported bioavailability.
Solution: 32%

====

Measurement Target: Cyclin-dependent kinase 2 (Homo sapiens)
Experiment Description: Inhibition of recombinant CDK2 using RbING as substrate after 2 hrs by luminometric assay
Please assign 0 whenever IC50 is at or above 0.3 µM, and 1 whenever it is below.

# example entries with known answers
CN1C/C=C/COCc2cncc(c2)-c2ccnc(n2)Nc2cccc(c2)C1 (mixture of isomers) :: 0
C1=C/COCc2cc(ccc2OCCN2CCCC2)Nc2nccc(n2)-c2ccnc(c2)OCC/1 (mixture of isomers) :: 1
CN1C/C=C/CCOc2cc(ccn2)-c2ccnc(n2)Nc2cccc(c2)C1 (mixture of isomers) :: 1
C1=C/COCc2cc(ccc2OCCN2CCCC2)Nc2nccc(n2)-c2coc(c2)COC/1 (mixture of isomers) :: 0
C1=C2COC/C=C/COCc3cc(ccc3OCCN3CCCC3)Nc3nccc(n3)C(=C1)O2 (mixture of isomers) [CT-1578] :: 0
Cc1cnc2nc1-c1ccc3ccn(c3c1)C/C=C/COCc1cc(ccc1OCCN1CCCC1)N2 (mixture of isomers) :: 0
C1=C/COCc2cncc(c2)-c2ccnc(n2)Nc2cccc(c2)COC/1 :: 1
C1=C/COCc2cc(ccc2OCCN2CCCC2)Nc2nccc(n2)-c2cc(co2)COC/1 (mixture of isomers) :: 0

Problem: Below 0.3 µM on IC50? Entry CN1C/C=C/COCC2=CC=C(S2)c2ccnc(n2)Nc2ccc(OCCN3CCCC3)c(c2)C1 (mixture of isomers)
Solution: 0

Problem: Below 0.3 µM on IC50? Entry CN1C/C=C/CCn2ccc3ccc(cc32)-c2ccnc(n2)Nc2cccc(c2)C1 (mixture of isomers)
Solution: 1

Problem: Below 0.3 µM on IC50? Entry C1=C/Cn2ccc3ccc(cc32)-c2ccnc(n2)Nc2ccc(OCCN3CCCC3)c(c2)COC/1 (mixture of isomers)
Solution: 1

Problem: Below 0.3 µM on IC50? Entry CN1C/C=C/COCC2=CC=C(O2)c2ccnc(n2)Nc2ccc(OCCN3CCCC3)c(c2)C1 (mixture of isomers)
Solution: 0

Problem: Below 0.3 µM on IC50? Entry CN1C/C=C/COCC2=CC=C(O2)c2ccnc(n2)Nc2cccc(c2)C1 (mixture of isomers)
Solution: 0
